Sourced from patent US11618747B2

# targetUnderTest: full length (FL) LXRβ (Homo sapiens, UniProt P55055, DUP175-175)
# Construct: the full length (FL) proteins of LXRα (amino acids 1-447); NP005684; NP009052; expressed in transfected cells; host or cells: HEK293
# Sequence (P55055 with tags, fused parts or gaps DUP175-175): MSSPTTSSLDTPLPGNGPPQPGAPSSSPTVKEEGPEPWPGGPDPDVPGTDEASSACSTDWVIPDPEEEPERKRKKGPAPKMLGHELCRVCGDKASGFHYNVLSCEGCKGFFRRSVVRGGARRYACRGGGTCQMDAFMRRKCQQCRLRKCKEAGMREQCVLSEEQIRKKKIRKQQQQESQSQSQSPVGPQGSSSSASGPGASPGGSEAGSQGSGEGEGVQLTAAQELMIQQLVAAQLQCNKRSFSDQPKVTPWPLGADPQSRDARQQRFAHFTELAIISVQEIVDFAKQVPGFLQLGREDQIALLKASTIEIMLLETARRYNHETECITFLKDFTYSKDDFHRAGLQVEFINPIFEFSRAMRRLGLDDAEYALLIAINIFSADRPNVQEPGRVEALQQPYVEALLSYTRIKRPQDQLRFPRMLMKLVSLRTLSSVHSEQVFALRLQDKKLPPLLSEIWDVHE
# testDetails: LXR Gal4 reporter transient transfection assay (FL-M2H Gal4β)
# Format: cell-based
# measurementConditions: HEK293 cells, full length LXRβ; read-out: FL-M2H Gal4β (EC50 range)
pEC50: −log10 of the molar value.
measure: pEC50

Cc1ccc(S(=O)(=O)n2c(-c3cccc(N4CC(C(=O)O)C4)c3)c(-c3ccsc3C#N)c3cc(F)ccc32)cc1 ... > 7.00
CN1CC(F)(c2ccccc2-c2c(-c3cccc(-c4ccc(C(=O)O)cc4Cl)c3)n(S(=O)(=O)c3ccc(C(F)F)cc3)c3ccc(F)cc23)C1 ... > 7.00

Attention now turns to another entry.
Notebook: "Cc1ccc(S(=O)(=O)n2c(-c3cccc(-c4ccc(C(C)(C)C(=O)O)c(S(C)(=O)=O)c4)c3)c(-c3ccsc3C#N)c3cc(F)ccc32)cc1" , pEC50 read as > 7.00
